- Tested on: A498 renal
- PROCEDURE TEXT: NCI tumour cell line growth inhibition, 48 h; in the data active = GI50 below about 0.43 µM; inactive = the rest
Select the correct class. Options are 1.0 (active), 0.0 (inactive) and nothing else.

// below: answered compounds
{"COMPOUND": "CCC1CCc2nc3sc(C(=O)Nc4cccc(F)c4)c(N)c3cc2C1 (stereo unspecified)", "CATEGORY": 0.0}
{"COMPOUND": "O=[N+]([O-])c1c(Br)sc(Br)c1[N+](=O)[O-]", "CATEGORY": 0.0}
{"COMPOUND": "O=C1/C(=C/c2ccc(Cl)cc2)N=C(c2ccccc2)N1CCc1cccs1", "CATEGORY": 0.0}
{"COMPOUND": "COc1ccc(-c2nc3ccccn3c2/C=C/C(=O)c2cc(OC)c(OC)c(OC)c2)cc1", "CATEGORY": 0.0}
{"COMPOUND": "Fc1ccc(Nc2nc3nonc3nc2Nc2ccc(F)cc2)cc1", "CATEGORY": 1.0}
{"COMPOUND": "O=C(Nc1ccccc1)NS(=O)(=O)c1ccc(-n2nc3c(c2-c2ccc(Cl)cc2)Cc2ccccc2-3)cc1", "CATEGORY": 0.0}
{"COMPOUND": "Nc1nc(Cl)c(N=Nc2ccc(Cl)cc2)c(NCC2(CO)CC2)n1", "CATEGORY": 0.0}
{"COMPOUND": "CC(=Nc1ccccc1)C1=C(O)C(Cc2ccccc2)NC1=O (stereo unspecified)", "CATEGORY": 1.0}
{"COMPOUND": "N#CSCC1CC(O)(c2ccccc2)CC(c2ccc(F)cc2)O1 (stereo unspecified)", "CATEGORY": 0.0}
{"COMPOUND": "O=C(Nc1ccc2ncnc(Nc3ccc(Oc4cccc(F)c4)c(Cl)c3)c2c1)c1ccc(CNCCO)cc1", "CATEGORY": 0.0}

Could you please tell me the result logged for COc1ccc2c(c1)C(=O)c1c-2c(Nc2ccc(Cl)cc2)nc2ccccc12 in this assay?
0.0

Also need CCNC(=O)c1cc2c(-c3cc(C(C)(C)O)ccc3Oc3c(C)cc(F)cc3C)cn(C)c(=O)c2[nH]1 , thanks.
0.0

Similarly, COc1cc(C2=C(C#Cc3ccccc3)COC2=O)cc(OC)c1OC ?
0.0

Another compound to check: CCCCCCCCCCCCCC[n+]1ccc2c(C)c3c(c(C)c2c1)c1cc(O)ccc1n3CC
1.0

Then O=C(/C=C/c1cc([N+](=O)[O-])ccc1Cl)c1ccccc1 ?
0.0

Note, next up: CN1c2ccccc2C(C)(C)C12C=Cc1cc(O)ccc1O2 (stereo unspecified)
0.0
